- Test system: monocytic THP1 cells infected with HIV VSV-G pseudotyped GFP-NEF reporter virus
- assay-text: cells
- Assay type: cell-based
- condition-info: Human immunodeficiency virus 1, THP-1, 24 h
measurement-type: log10(EC50) (log10 of the value in nM)
Lab note - EC50 converted to log10 from values in nM.

Any idea what log10(EC50) was measured for Cc1cc(/C=C/C#N)cc(C)c1Oc1nc(NC23CC(C#N)(C2)C3)nc2c1C(C)N(c1cn(C)nc1C)C2=O (centres unmarked) ?
1.85

What does the record list as log10(EC50) for Cc1cc(/C=C/C#N)cc(C)c1Oc1nc(NC23CC(C#N)(C2)C3)nc2nn(CCO)cc12 ?
1.65

If you can, please state the reported log10(EC50) value of Cc1cc(/C=C/C#N)cc(C)c1Oc1nc(NC23CC(C#N)(C2)C3)nc2nc(-c3ccn(C)n3)n(C(F)F)c12 .
1.66

# query: log10(EC50) of entry Cc1cc(/C=C/C#N)cc(C)c1Oc1nc(NC23CC(C#N)(C2)C3)nc2nc3n(c12)C[C@H](O)CO3 (single isomer, unassigned)
1.70

Given the compound Cc1cc(/C=C/C#N)cc(C)c1Oc1nc(NC23CC(C#N)(C2)C3)nc2c1C1(C)O[C@H](C)CN1C2=O (single isomer, unassigned) [Example 251] , what is its reported log10(EC50)?
1.86

Consider the compound Cc1cc(/C=C/C#N)cc(C)c1Oc1nc(NC23CC(C#N)(C2)C3)nc2c1CCN2 and give its measured log10(EC50).
2.34

Endpoint output: log10(EC50) of C=C1c2c(Oc3c(C)cc(/C=C/C#N)cc3C)nc(NC34CC(C#N)(C3)C4)nc2C(=O)N1CCCCO . Value?
1.28

Return reported log10(EC50); argument: Cc1cc(/C=C/C#N)cc(C)c1Oc1nc(NC23CC(C#N)(C2)C3)nc2nn(C(F)F)nc12 (single isomer, unassigned)
2.41

Entry Cc1cc(/C=C/C#N)cc(C)c1Oc1nc(NC23CC(C#N)(C2)C3)nc2c1CCC2(F)F : reported log10(EC50) = ?
1.52

Given the compound Cc1cc(/C=C/C#N)cc(C)c1Oc1nc(NC23CC(C#N)(C2)C3)nc2nc3n(c12)CCC3 , what is its reported log10(EC50)?
1.39

Requested field: log10(EC50). Item: Cc1cc(/C=C/C#N)cc(C)c1Nc1nc(NC23CC(C#N)(C2)C3)nc2[nH]nc(C)c12
2.34

Entry Cc1cc(/C=C/C#N)cc(C)c1Oc1nc(NC23CC(C#N)(C2)C3)nc2c1[C@@H](C)N(c1cnn(C)c1)C2=O : reported log10(EC50) = ?
2.67

Consider the compound shown here: Cc1cc(/C=C/C#N)cc(C)c1Oc1nc(NC23CC(C#N)(C2)C3)nc2c1[C@H](C)N(c1cn[nH]c1)C2=O What is its recorded log10(EC50)?
1.86

Can you look up the measured log10(EC50) of Cc1cc(/C=C/C#N)cc(C)c1Oc1nc(NC23CC(C#N)(C2)C3)nc2nn(CC3CC3)cc12 for me?
1.95

====

Assignment: determine reported pEC50 for the given molecules.
- Tested on: monocytic THP1 cells infected with HIV VSV-G pseudotyped GFP-NEF reporter virus
- assay-text: cells
- Assay type: cell-based
- condition-info: Human immunodeficiency virus 1, THP-1, 24 h
Scale for pEC50: -log10 of concentration given in mol/L; no unit attached.

# pEC50 lookup, item Cc1cc(/C=C/C#N)cc(C)c1Oc1nc(NC23CC(C#N)(C2)C3)nc2cn(C(C)C)nc12 [Compound 108]
6.21

pEC50 for Cc1cc(/C=C/C#N)cc(C)c1Oc1nc(NC23CC(C#N)(C2)C3)nc2c1/C(=C/F)N(C1CC1)C2=O [Compound 268] ?
6.76

For COCCn1cc(N2C(=O)c3nc(NC45CC(C#N)(C4)C5)nc(Oc4c(C)cc(/C=C/C#N)cc4C)c3C2C)cn1 (stereo not shown) [Example 219] , what is its reported pEC50?
7.39

pEC50 lookup needed for Cc1cc(/C=C/C#N)cc(C)c1Oc1nc(NC23CC(C#N)(C2)C3)nc2c1[C@]1(C)O[C@@H](C)CN1C2=O (single isomer, unassigned) [Example 248] , thanks.
6.92

For the molecule shown here, COCCn1cc2c(Oc3c(C)cc(/C=C/C#N)cc3C)nc(NC34CC(C#N)(C3)C4)nc2n1 [Compound 123] , give the reported pEC50.
7.22

Given the entry Cc1cc(/C=C/C#N)cc(C)c1Oc1nc(NC23CC(C#N)(C2)C3)nc2nn(C3CCOCC3)cc12 [Compound 127] , report its measured pEC50.
6.83

What does the data say about its pEC50? Entry: Cc1cc(/C=C/C#N)cc(C)c1Oc1nc(NC23CC(C#N)(C2)C3)nc2c1C(C)N(C(C)C)C2=O (stereo not shown) [Example 206]
6.55
